Read-out: Vascular cell adhesion molecule 1 (VCAM1), VCAM1 (gene 7412)
Assay: BSK_hDFCGF_VCAM1: BioMAP Diversity Plus: hDFCGF Assay for Vascular cell adhesion molecule 1 (VCAM1) Biomarker Activity (AID 2283065)
Conditions: primary human foreskin fibroblasts; actives raise or lower the signal
Activity calls are given as the source filed them. Rule for the calls: active = hit-call score of the fitted dose curve at least 0.9, where 1 is the maximum; inactive = score below 0.9.
Labels: active, inactive

COMPOUND	GROUP
CCNc1ccccc1	inactive
O=C1OC(=O)C2C3C=CC(C3)C12 (stereo unspecified)	inactive
Fc1ccccc1[C@@H](F)COC1CCC(Nc2ncnc3[nH]ncc23)CC1 (stereo partly specified)	inactive
O=c1n(CC2CO2)c(=O)n(CC2CO2)c(=O)n1CC1CO1 (stereo unspecified)	active
Cc1c(-c2cccnc2)c2ccccc2n1CCCCC(=O)O	inactive
CC(C)c1cccc(C(C)C)c1N1C(=O)c2ccc(O)cc2C1=O	active
Cn1c(=O)c2c(ncn2C)n(C)c1=O	inactive
Cc1[nH]cnc1C[C@H]1CCc2c(C)c3ccccc3n2C1=O	inactive
O=C(O)CCN(C1(C(=O)NO)CCCC1)S(=O)(=O)c1ccc(Oc2ccc(F)cc2)cc1	inactive
CC(=O)c1ccc2c(c1)[C@H](NC(=O)c1ccc(F)cc1)[C@@H](O)C(C)(C)O2	inactive
CCN(C(=O)c1cc(C)cc(OC[C@H](C)Nc2ccncc2)c1)C(C)C	inactive

###

Experiment: ATG_FoxO_CIS: Attagene CIS-FACTORIAL HepG2 Assay for human Forkhead box O (FoxO) (AID 2282943)
Details: HepG2 Attagene cis-reporter, FoxO element, mRNA; actives raise or lower the signal
The source made the active and inactive calls. The calls were made as follows: active = hit-call score of the fitted dose curve at least 0.9, where 1 is the maximum; inactive = score below 0.9.
Labels: 1 (yes) = active, 0 (no) = inactive

MOLECULE	GROUP
Cc1[nH]cnc1C[C@H]1CCc2c(C)c3ccccc3n2C1=O	0 (no)
CCc1cc(SCc2sc(-c3ccc(C(F)(F)F)cc3)nc2CN2CCN(c3ccc(OC)cc3)CC2)ccc1OCC(=O)O	0 (no)
CCC(C)(C)C(=O)O[C@H]1C[C@@H](C)C=C2C=C[C@H](C)[C@H](CC[C@@H]3C[C@@H](O)CC(=O)O3)[C@H]21	0 (no)
CCOC(=O)c1ccc(C2CCC(NC[C@H](O)COc3ccc(O)c(NS(C)(=O)=O)c3)CC2)cc1 (stereo not given in full)	1 (yes)
CC(C)=CCC/C(C)=C/CO	0 (no)
C1=CCCC=CCCC=CCC1	0 (no)
COc1ccc2sc(C(=O)Nc3nnn[nH]3)c(OC(C)C)c2c1	0 (no)
O=C(OC[C@H]1O[C@@H](OC(=O)c2cc(O)c(O)c(OC(=O)c3cc(O)c(O)c(O)c3)c2)[C@H](OC(=O)c2cc(O)c(O)c(OC(=O)c3cc(O)c(O)c(O)c3)c2)[C@@H](OC(=O)c2cc(O)c(O)c(OC(=O)c3cc(O)c(O)c(O)c3)c2)[C@@H]1OC(=O)c1cc(O)c(O)c(OC(=O)c2cc(O)c(O)c(O)c2)c1)c1cc(O)c(O)c(OC(=O)c2cc(O)c(O)c(O)c2)c1	0 (no)
CCCC(=O)OCC	0 (no)
CNCc1ccc(NC(=O)c2c[nH]c3c2C(=O)CCC3)cc1	0 (no)
Nc1ccc(Nc2ccccc2)cc1	0 (no)
Cn1cnc([N+](=O)[O-])c1Sc1ncnc2nc[nH]c12	0 (no)
O=C(O)c1cc(N=Nc2ccc(S(=O)(=O)Nc3ccccn3)cc2)ccc1O	0 (no)
CCNc1ccccc1	0 (no)
C[C@](N)(Cc1ccc(O)c(O)c1)C(=O)O	0 (no)
COC(=O)c1ccccc1O	0 (no)
Fc1ccccc1[C@@H](F)COC1CCC(Nc2ncnc3[nH]ncc23)CC1 (stereo not given in full)	0 (no)
CC(C)c1cccc(C(C)C)c1N1C(=O)c2ccc(O)cc2C1=O	0 (no)
CCOC(=O)CC(CC(=O)OCC)(OC(C)=O)C(=O)OCC	0 (no)
Nc1nc2ncc(CNc3ccc(C(=O)N[C@@H](CCC(=O)O)C(=O)O)cc3)nc2c(=O)[nH]1	0 (no)

###

Biological target: mouse Cholecystokinin, CCK1 Receptor (CCKA), Cckar (gene 12425)
Assay: NVS_GPCR_mCCKAPeripheral: NovaScreen (NVS) G Protein-Coupled Receptor Assay for mouse Cholecystokinin, CCK1 Receptor (CCKA) (AID 2283285)
Records with an inconclusive call do not appear. Activity calls are given as the source filed them. How the source made its calls: active means hit-call score of the fitted dose curve at least 0.9, where 1 is the maximum; inconclusive means response in the unintended direction; inactive means score below 0.9.

CHEMICAL_STRUCTURE	SYSTEM	AC50
Cn1c(=O)cc(Oc2ccc(F)cc2F)c2cnc(NCC(C)(C)O)nc21	mouse Cholecystokinin, CCK1 Receptor (CCKA), Cckar (gene 12425)	11.3 µM (active)
CCOc1cccc(-n2cc(C(=O)N3CCN(c4cc(C(=O)O)c5ccccc5c4)CC3)nc2-c2ccc(C)cc2)c1	mouse Cholecystokinin, CCK1 Receptor (CCKA), Cckar (gene 12425)	0.00589 µM (active)
O=C(OC[C@H]1O[C@@H](OC(=O)c2cc(O)c(O)c(OC(=O)c3cc(O)c(O)c(O)c3)c2)[C@H](OC(=O)c2cc(O)c(O)c(OC(=O)c3cc(O)c(O)c(O)c3)c2)[C@@H](OC(=O)c2cc(O)c(O)c(OC(=O)c3cc(O)c(O)c(O)c3)c2)[C@@H]1OC(=O)c1cc(O)c(O)c(OC(=O)c2cc(O)c(O)c(O)c2)c1)c1cc(O)c(O)c(OC(=O)c2cc(O)c(O)c(O)c2)c1	mouse Cholecystokinin, CCK1 Receptor (CCKA), Cckar (gene 12425)	12 µM (active)

###

Assay: CCTE_Padilla_ZF_144hpf_TERATOSCORE: (Legacy) CCTE's 144 Hour Post-fertilization zebrafish Assay Teratoscore, Padilla Lab (AID 2283679)
Calls of active or inactive are those of the source. How the source made its calls: active means hit-call score of the fitted dose curve at least 0.9, where 1 is the maximum; inactive means score below 0.9.
Labels: active, inactive

COMPOUND	GROUP
CCOc1cccc(-n2cc(C(=O)N3CCN(c4cc(C(=O)O)c5ccccc5c4)CC3)nc2-c2ccc(C)cc2)c1	active
CCOC(=O)CC(CC(=O)OCC)(OC(C)=O)C(=O)OCC	inactive
CC/C(=C\C(=N/O)C(N)=O)C(C)[N+](=O)[O-] (stereo not given)	inactive
CCOC(=O)COc1ccc2c(c1)CC(NCC(O)c1cccc(Cl)c1)CC2 (stereo not given)	active
CCCCC(CC)COC(=O)CCCCCCCCC(=O)OCC(CC)CCCC (stereo not given)	inactive
Nc1ccc(Nc2ccccc2)cc1	active
CCCCCCc1ccc(O)cc1O	active
Nc1nc2ncc(CNc3ccc(C(=O)N[C@@H](CCC(=O)O)C(=O)O)cc3)nc2c(=O)[nH]1	inactive
CCc1cc(SCc2sc(-c3ccc(C(F)(F)F)cc3)nc2CN2CCN(c3ccc(OC)cc3)CC2)ccc1OCC(=O)O	active
COc1ccc(/C=C/S(=O)(=O)NC(=O)c2ccc(C)cc2Cl)cc1	inactive

###

Target: rat Adrenergic, Alpha 1A Receptor (Adra1A), Adra1a (gene 29412)
Assay: NVS_GPCR_rAdra1A: NovaScreen (NVS) G Protein-Coupled Receptor Assay for rat Adrenergic, Alpha 1A Receptor (Adra1A) (AID 2283296)
Records with an inconclusive call do not appear. Active and inactive are the calls of the source. The calls were made as follows: active = hit-call score of the fitted dose curve at least 0.9, where 1 is the maximum; inconclusive = response in the unintended direction; inactive = score below 0.9.
Labels: T for active, F for inactive

MOLECULE	GROUP
O=c1[nH]c2ccc(S(=O)CCN3CCC(Cc4ccc(F)cc4)CC3)cc2o1 (centres undefined)	T
CNS(=O)(=O)c1cc(C(=O)N2CCC(CCN3C4CCC3CC(n3c(C)nc5ccccc53)C4)(c3cccc(F)c3)CC2)c(Cl)cc1F (centres undefined)	T
COc1cccc(-c2ccc(/C=C\CN3CCCCCC3)cc2Cl)c1	F
CCN(C(=O)c1cc(C)cc(OC[C@H](C)Nc2ccncc2)c1)C(C)C	T

###

Biological target: Bile acid receptor (Homo sapiens) (UniProt Q96RI1)
Sequence (Q96RI1 whole entry, looked up): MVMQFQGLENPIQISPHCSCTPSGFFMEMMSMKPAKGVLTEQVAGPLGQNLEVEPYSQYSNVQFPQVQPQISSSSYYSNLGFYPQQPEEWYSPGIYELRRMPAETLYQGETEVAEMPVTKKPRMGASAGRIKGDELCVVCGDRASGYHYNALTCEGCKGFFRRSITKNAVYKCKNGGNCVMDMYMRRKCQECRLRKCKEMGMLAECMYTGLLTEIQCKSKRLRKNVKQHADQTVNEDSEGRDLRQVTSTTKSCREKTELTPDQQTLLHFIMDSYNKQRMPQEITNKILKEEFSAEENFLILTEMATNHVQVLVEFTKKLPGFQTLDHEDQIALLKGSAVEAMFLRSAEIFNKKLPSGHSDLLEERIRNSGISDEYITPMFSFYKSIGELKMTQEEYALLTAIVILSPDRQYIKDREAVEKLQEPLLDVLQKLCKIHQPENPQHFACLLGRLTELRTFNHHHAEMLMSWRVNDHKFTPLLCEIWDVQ
Assay: ATG_FXR_TRANS: Attagene TRANS-FACTORIAL HepG2 Assay for Farnesoid X Receptor (FXR) (AID 2282979);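 note: hits raise reporter mRNA above DMSO so AC50 marks FXR activation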
Conditions: HepG2 Attagene TRANS FXR-GAL4 reporter transcription
Records with an inconclusive call do not appear. Activity calls are given as the source filed them. Rule for the calls: active = hit-call score of the fitted dose curve at least 0.9, where 1 is the maximum; inconclusive = response in the unintended direction; inactive = score below 0.9.
Labels: 1 (yes) = active, 0 (no) = inactive

MOLECULE	GROUP
C1=CCCC=CCCC=CCC1	0 (no)
COCCOc1cc2cc(C(=O)NC3CCN(C(C)C)CC3)n(CC(=O)Nc3ccc(Cl)cn3)c2cn1	0 (no)
CCOC(=O)c1ccc(C2CCC(NC[C@H](O)COc3ccc(O)c(NS(C)(=O)=O)c3)CC2)cc1 (stereo partly specified)	1 (yes)
Oc1ccc2c(c1)-c1ccccc1C2	0 (no)
CC(C)=CCC/C(C)=C\CO	0 (no)
O=C1CCCCCN1	0 (no)
Cc1c(-c2cccnc2)c2ccccc2n1CCCCC(=O)O	0 (no)
COc1cccc(-c2ccc(/C=C\CN3CCCCCC3)cc2Cl)c1	0 (no)
CC1(C)C(=O)N(Br)C(=O)N1Br	0 (no)
CCCCC(CC)COC(=O)c1ccc(C(=O)OCC(CC)CCCC)cc1 (stereo unspecified)	0 (no)
CCCCCCCCCCCCCCCO	0 (no)
